Origin of measurements: ChEMBL document CHEMBL3632461

assayProcedure: Drug excretion in Beagle dog urine at 1 mg/kg, iv
Format: ADME, organism-based, Canis lupus familiaris
cond: read-out: Drug excretion
experimentalEndpoint: dose excreted (%)

[[record]]
smilesentry = "COc1ccc(Cl)cc1-c1cc(=O)[nH]c(=S)n1CC(N)=O"
reportedresult = 26


----------
assayProcedure: Fraction unbound in mouse plasma at 2 uM by equilibrium dialysis method
Assay type: ADME, cell-free
experimentalEndpoint: fraction unbound at 2 µM

[[record]]
smilesentry = "COc1ccc(Cl)cc1-c1cc(=O)[nH]c(=S)n1CC(N)=O"
reportedresult = 0.451


----------
assayProcedure: Oral bioavailability in CD-1 mouse at 3 or 5 mg/kg
Format: ADME, organism-based
cond: in vivo
experimentalEndpoint: bioavailability (%)

[[record]]
molecule = "COc1ccc(Cl)cc1-c1cc(=O)[nH]c(=S)n1CC(N)=O [PF-06282999]"
reportedresult = 100


----------
assayTarget: UniProt P10635
Sequence (P10635 whole entry): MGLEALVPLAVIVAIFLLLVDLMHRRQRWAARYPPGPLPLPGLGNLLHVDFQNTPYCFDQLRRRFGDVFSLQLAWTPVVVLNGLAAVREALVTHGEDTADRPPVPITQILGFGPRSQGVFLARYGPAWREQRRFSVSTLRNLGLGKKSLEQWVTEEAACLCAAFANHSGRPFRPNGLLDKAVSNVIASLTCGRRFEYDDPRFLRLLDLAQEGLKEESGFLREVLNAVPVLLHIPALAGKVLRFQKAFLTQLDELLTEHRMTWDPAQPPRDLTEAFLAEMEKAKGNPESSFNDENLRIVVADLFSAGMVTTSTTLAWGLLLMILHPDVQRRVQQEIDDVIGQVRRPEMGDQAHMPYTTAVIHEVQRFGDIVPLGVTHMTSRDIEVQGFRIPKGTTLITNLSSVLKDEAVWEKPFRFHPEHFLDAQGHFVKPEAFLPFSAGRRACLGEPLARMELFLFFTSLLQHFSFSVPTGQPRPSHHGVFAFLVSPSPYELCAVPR
assayProcedure: Reversible inhibition of CYP2D6 dextromethorphan O-demethylase activity in human liver microsomes by LC-MS/MS analysis
Format: ADME
pIC50: −log10 of the molar value.
experimentalEndpoint: pIC50

[[record]]
compound = "COc1ccc(Cl)cc1-c1cc(=O)[nH]c(=S)n1CC(N)=O [PF-06282999]"
assaytarget = "UniProt P10635"
reportedresult = "< 4.00"


----------
assayProcedure: Drug excretion in Wistar rat urine at 1 mg/kg, iv
Type: ADME, organism-based
cond: read-out: Drug excretion
experimentalEndpoint: dose excreted (%)

[[record]]
smilesentry = "COc1ccc(Cl)cc1-c1cc(=O)[nH]c(=S)n1CC(N)=O"
unit = "%"
reportedresult = 26


----------
assayProcedure: Volume of distribution at steady state in CD-1 mouse at 1 mg/kg, iv and 3 or 5 mg/kg, po
Type: ADME, organism-based
cond: in vivo, read-out: Vdss
experimentalEndpoint: Vd

[[record]]
smilesentry = "COc1ccc(Cl)cc1-c1cc(=O)[nH]c(=S)n1CC(N)=O"
reportedresult = "0.9 L/kg"


----------
assayProcedure: Tmax in Wistar rat at 3 or 5 mg/kg, po
Type: ADME, organism-based
cond: in vivo
experimentalEndpoint: Tmax (min)

[[record]]
smilesentry = "COc1ccc(-c2cc(=O)[nH]c(=S)n2CC(N)=O)c(OC)c1"
unit = "min"
reportedresult = 30

[[record]]
smilesentry = "COc1ccc(-c2cc(=O)[nH]c(=S)n2CC(=O)NCCN)c(OC)c1"
unit = "min"
reportedresult = 45

[[record]]
smilesentry = "COc1ccc(OC)c(-c2cc(=O)[nH]c(=S)n2CC(N)=O)c1"
unit = "min"
reportedresult = 40.2

[[record]]
smilesentry = "COc1ccc(Cl)cc1-c1cc(=O)[nH]c(=S)n1CC(N)=O"
unit = "min"
reportedresult = 46.8

[[record]]
smilesentry = "COc1ccc(-c2cc(=O)[nH]c(=S)n2CCO)c(OC)c1"
unit = "min"
reportedresult = 78

[[record]]
smilesentry = "COc1ccc(-c2cc(=O)[nH]c(=S)n2CCN)c(OC)c1"
unit = "min"
reportedresult = 22.8


----------
Below, each entry is listed with its recorded log(ratio).
assayTarget: Myeloperoxidase (Homo sapiens) (UniProt P05164)
Sequence (whole entry): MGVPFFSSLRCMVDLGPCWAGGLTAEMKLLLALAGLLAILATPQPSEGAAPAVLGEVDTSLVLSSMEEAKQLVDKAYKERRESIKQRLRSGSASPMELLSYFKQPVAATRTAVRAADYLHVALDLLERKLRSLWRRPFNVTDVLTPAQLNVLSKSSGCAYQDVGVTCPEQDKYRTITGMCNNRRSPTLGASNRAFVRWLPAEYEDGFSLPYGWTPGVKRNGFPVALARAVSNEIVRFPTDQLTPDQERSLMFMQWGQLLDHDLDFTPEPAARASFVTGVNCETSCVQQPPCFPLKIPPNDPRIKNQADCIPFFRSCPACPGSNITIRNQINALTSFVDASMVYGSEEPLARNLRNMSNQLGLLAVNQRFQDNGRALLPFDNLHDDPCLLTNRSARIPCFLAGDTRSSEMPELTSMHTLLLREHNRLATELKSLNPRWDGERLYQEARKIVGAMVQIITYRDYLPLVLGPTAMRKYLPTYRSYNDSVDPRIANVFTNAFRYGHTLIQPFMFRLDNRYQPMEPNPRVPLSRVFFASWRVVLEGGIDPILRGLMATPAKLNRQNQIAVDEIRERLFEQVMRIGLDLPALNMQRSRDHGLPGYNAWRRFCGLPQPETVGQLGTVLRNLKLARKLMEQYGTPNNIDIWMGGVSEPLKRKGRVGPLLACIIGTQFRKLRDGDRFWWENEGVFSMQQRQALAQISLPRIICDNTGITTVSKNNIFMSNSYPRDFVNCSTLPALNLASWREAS
assayProcedure: Inhibition of peroxidase activity of MPO isolated from human polynuclear leukocytes using Amplex Red as substrate assessed as formation of resorufin by measuring ratio of Kinact to Ki measured every 20 secs by spectrophotometric analysis
experimentalEndpoint: log(ratio)

[[record]]
smilesentry = "COc1ccc(-c2cc(=O)[nH]c(=S)n2CCOC(C)C)c(OC)c1"
reportedresult = 3.87

[[record]]
smilesentry = "COc1ccc(OC)c(-c2cc(=O)[nH]c(=S)n2CC(N)=O)c1"
reportedresult = 4.09

[[record]]
smilesentry = "COc1ccc(-c2cc(=O)[nH]c(=S)n2CCN)c(OC)c1"
reportedresult = 4.13

[[record]]
smilesentry = "COc1ccc(-c2cc(=O)[nH]c(=S)n2CC(N)=O)c(OC)c1"
reportedresult = 4.03

[[record]]
smilesentry = "COc1ccc(-c2cc(=O)[nH]c(=S)n2CC(=O)NCCN)c(OC)c1"
reportedresult = 4.03

[[record]]
smilesentry = "COc1ccccc1-c1cc(=O)[nH]c(=S)[nH]1"
reportedresult = 3.36

[[record]]
smilesentry = "COc1ccc(-c2cc(=O)[nH]c(=S)n2CCO)c(OC)c1"
reportedresult = 4.47


----------
Test system: Hepatocyte
assayProcedure: Intrinsic apparent clearance in human hepatocytes assessed per 10^6 cells
Assay type: ADME, cell-based
experimentalEndpoint: CLH(app)

[[record]]
smilesentry = "COc1ccc(-c2cc(=O)[nH]c(=S)n2CC(=O)NCCN)c(OC)c1"
assaytarget = "Hepatocyte"
experimentalendpoint = "CLH(app)"
reportedresult = "< 6 µL/min"

[[record]]
smilesentry = "COc1ccc(OC)c(-c2cc(=O)[nH]c(=S)n2CC(N)=O)c1"
assaytarget = "Hepatocyte"
experimentalendpoint = "CLH(app)"
reportedresult = "< 6 µL/min"

[[record]]
smilesentry = "COc1ccc(-c2cc(=O)[nH]c(=S)n2CCO)c(OC)c1"
assaytarget = "Hepatocyte"
experimentalendpoint = "CLH(app)"
reportedresult = "< 6 µL/min"

[[record]]
smilesentry = "COc1ccc(-c2cc(=O)[nH]c(=S)n2CCN)c(OC)c1"
assaytarget = "Hepatocyte"
experimentalendpoint = "CLH(app)"
reportedresult = "2.9 µL/min"

[[record]]
smilesentry = "COc1ccc(Cl)cc1-c1cc(=O)[nH]c(=S)n1CC(N)=O"
assaytarget = "Hepatocyte"
experimentalendpoint = "CLH(app)"
reportedresult = "< 6 µL/min"

[[record]]
smilesentry = "COc1ccc(-c2cc(=O)[nH]c(=S)n2CC(N)=O)c(OC)c1"
assaytarget = "Hepatocyte"
experimentalendpoint = "CLH(app)"
reportedresult = "< 6 µL/min"


----------
assayTarget: Cytochrome P450 2C19 (Homo sapiens)
Sequence (P33261 whole entry): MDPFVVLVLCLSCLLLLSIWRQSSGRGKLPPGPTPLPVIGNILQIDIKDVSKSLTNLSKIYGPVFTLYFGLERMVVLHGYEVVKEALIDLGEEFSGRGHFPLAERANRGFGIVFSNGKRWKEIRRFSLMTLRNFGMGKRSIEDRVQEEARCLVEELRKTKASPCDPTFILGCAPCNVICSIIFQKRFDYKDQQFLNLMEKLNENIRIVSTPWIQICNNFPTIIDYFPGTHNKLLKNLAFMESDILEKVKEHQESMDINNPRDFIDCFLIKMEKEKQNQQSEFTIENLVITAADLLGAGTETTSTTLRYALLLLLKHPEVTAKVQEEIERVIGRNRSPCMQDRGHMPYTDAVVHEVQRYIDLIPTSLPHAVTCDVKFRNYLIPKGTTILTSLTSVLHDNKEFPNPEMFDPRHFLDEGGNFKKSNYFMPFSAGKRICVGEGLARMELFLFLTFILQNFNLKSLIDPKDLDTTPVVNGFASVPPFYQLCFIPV
assayProcedure: Time-dependent inhibition of CYP2C19 in human liver microsomes
Format: ADME
pIC50: −log10 of the molar value.
experimentalEndpoint: pIC50

[[record]]
compound = "COc1ccc(Cl)cc1-c1cc(=O)[nH]c(=S)n1CC(N)=O [PF-06282999]"
reportedresult = "< 4.00"


----------
assayProcedure: Oral bioavailability in Beagle dog at 3 or 5 mg/kg
Format: ADME, organism-based, Canis lupus familiaris
cond: in vivo
experimentalEndpoint: bioavailability (%)

[[record]]
compound = "COc1ccc(Cl)cc1-c1cc(=O)[nH]c(=S)n1CC(N)=O [PF-06282999]"
experimentalendpoint = "bioavailability"
reportedresult = 75

[[record]]
compound = "COc1ccc(-c2cc(=O)[nH]c(=S)n2CC(N)=O)c(OC)c1"
experimentalendpoint = "bioavailability"
reportedresult = 31

[[record]]
compound = "COc1ccc(-c2cc(=O)[nH]c(=S)n2CCO)c(OC)c1"
experimentalendpoint = "bioavailability"
reportedresult = 16

[[record]]
compound = "COc1ccc(OC)c(-c2cc(=O)[nH]c(=S)n2CC(N)=O)c1"
experimentalendpoint = "bioavailability"
reportedresult = 100

[[record]]
compound = "COc1ccc(-c2cc(=O)[nH]c(=S)n2CCN)c(OC)c1"
experimentalendpoint = "bioavailability"
reportedresult = 84

[[record]]
compound = "COc1ccc(-c2cc(=O)[nH]c(=S)n2CC(=O)NCCN)c(OC)c1"
experimentalendpoint = "bioavailability"
reportedresult = 8


----------
assayProcedure: Volume of distribution at steady state in Beagle dog at 1 mg/kg, iv and 3 or 5 mg/kg, po
Type: ADME, organism-based, Canis lupus familiaris
cond: in vivo, read-out: Vdss
Recorded measurements of log10 of Vd, one per entry
experimentalEndpoint: log10 of Vd (log10 of the value in L/kg)

[[record]]
smilesentry = "COc1ccc(-c2cc(=O)[nH]c(=S)n2CCO)c(OC)c1"
reportedresult = 0.12

[[record]]
smilesentry = "COc1ccc(OC)c(-c2cc(=O)[nH]c(=S)n2CC(N)=O)c1"
reportedresult = 0.01

[[record]]
smilesentry = "COc1ccc(-c2cc(=O)[nH]c(=S)n2CC(=O)NCCN)c(OC)c1"
reportedresult = -0.07

[[record]]
smilesentry = "COc1ccc(-c2cc(=O)[nH]c(=S)n2CCN)c(OC)c1"
reportedresult = 0.56

[[record]]
smilesentry = "COc1ccc(-c2cc(=O)[nH]c(=S)n2CC(N)=O)c(OC)c1"
reportedresult = -0.52

[[record]]
smilesentry = "COc1ccc(Cl)cc1-c1cc(=O)[nH]c(=S)n1CC(N)=O"
reportedresult = -0.27

